- experimental target: Interleukin-1 receptor-associated kinase 4 (Homo sapiens)
- Sequence (Q9NWZ3 whole entry): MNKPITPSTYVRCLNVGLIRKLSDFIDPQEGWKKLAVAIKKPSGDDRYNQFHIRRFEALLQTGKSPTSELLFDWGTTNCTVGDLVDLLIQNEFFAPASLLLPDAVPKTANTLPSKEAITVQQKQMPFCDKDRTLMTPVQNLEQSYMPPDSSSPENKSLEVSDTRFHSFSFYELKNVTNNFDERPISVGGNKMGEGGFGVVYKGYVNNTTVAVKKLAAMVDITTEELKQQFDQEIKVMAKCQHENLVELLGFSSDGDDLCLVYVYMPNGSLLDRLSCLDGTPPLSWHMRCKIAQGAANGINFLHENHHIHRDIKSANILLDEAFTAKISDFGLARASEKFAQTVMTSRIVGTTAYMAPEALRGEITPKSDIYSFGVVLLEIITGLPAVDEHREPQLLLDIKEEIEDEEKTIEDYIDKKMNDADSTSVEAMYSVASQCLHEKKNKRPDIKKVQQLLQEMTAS
- protocol: IRAK4 Biochemical Assay: IRAK4 enzyme (Carna Biosciences, Chuo-ku, Kobe, Japan) activity was measured by detecting phosphorylated peptide substrate formation using an antibody against the phosphorylated peptide substrate. This is a time-resolved fluorescence resonance energy transfer (TR-FRET) immunoassay, based on the STK1 KinEASE Assay (Cisbio, Bedford, Mass.). The assay was designed as a simple two-step, endpoint assay (a 5 μl enzyme reaction followed by 5 μl stop and detect Solution) performed in ProxiPlate-384 Plus plates (Perkin Elmer, Waltham, Mass.). Staurosporine, a non-selective kinase inhibitor was used as a positive control. Compounds diluted in DMSO were spotted into 384 well plates using a Labcyte® Echo 550 Liquid Handling System prior to addition of IRAK4 enzyme and peptide substrate. Reaction solutions were delivered using a Multi-Flo (Bio-Tek Instruments). The enzyme and peptide solution was incubated with compound for 15 minutes at room temp before the reaction was initiated by the addition of ATP. The standard 5 μl reaction mixture contained 500 μM ATP, […] peptide (STK1 Peptide), 0.75 nM of IRAK4 in reaction buffer (50 mM HEPES, pH 7.0, 0.02% NaN3, 0.01% BSA, 0.1 mM Orthovanadate, 5 mM […], 0.025% NP-40, 1 mM DTT). After 120 min of incubation at room temperature, 5 μl of Stop and Detect Solution (1:100 Cryptate labeled anti-phosphorylated peptide antibody solution and 125 nM Tracer in a 50 mM HEPES pH 7.0 detection buffer containing sufficient EDTA) was added. The plate was then further incubated for 60 minutes at room temperature and read on Envision 2103 Multilabeled reader (PerkinElmer) with excitation/emission/FRET emission at 340 nm/615 nm665 nm, respectively. Fluorescence intensities at 615 nm and 665 nm emission wavelengths were expressed as aratio (665 nm/615 nm).
readout kind: IC50 (nM)
Express your answer in nM, writing the number without its unit.

Form field IC50, entry CC(C)Nc1cc(-c2ccc3cc(C#N)cnn23)ncc1-c1nnc(N2CCCC2)s1 : 1.8
